# PROTOCOL DETAILS: Beagle dog PK study 2 of Example 101 (HPβCD based formulation, IV), with clinical observations
# Assay type: in vivo
# CONDITION INFO: beagle, dog, plasma, iv, 1 mg/kg, dog PK study 2, IV 1 mg/kg, HPβCD, 0.5 h, Test Animal 2; read-out: Plasma concentration
MEASURED ENDPOINT: concentration at 0.5 h (ng/mL)
Give bare numbers, in ng/mL.

Form field: reported concentration at 0.5 h of CNC(=O)c1[nH]c(C(=O)NC2CCC2)cc1O[C@@H](C)c1ccccc1 (stereo in doubt) 498

* * *

# PROTOCOL DETAILS: Pharmacokinetics and plasma concentration of Example 101 in Lewis rats after oral administration (CIA study)
# Format: in vivo, Lewis rat
# CONDITION INFO: Lewis, rat, plasma, po, 10 mg/kg, Lewis rats, oral, 10 mg/kg, day 20, mean; read-out: Cmax
MEASURED ENDPOINT: Cmax (ng/mL)
Give bare numbers, in ng/mL.

Endpoint output: Cmax of CNC(=O)c1[nH]c(C(=O)NC2CCC2)cc1O[C@@H](C)c1ccccc1 (stereo in doubt) [Example 101] . Value? 1710

* * *

# PROTOCOL DETAILS: Pharmacokinetics and plasma concentration of Example 101 in Lewis rats after oral administration (CIA study)
# Assay type: in vivo, Lewis rat
# CONDITION INFO: Lewis, rat, plasma, po, 10 mg/kg, Lewis rats, oral, 10 mg/kg, day 20, mean; read-out: MRTInf—obs
MEASURED ENDPOINT: MRT inf (h)
Answers are plain numbers, in h.

Give its MRT inf value. Item: CNC(=O)c1[nH]c(C(=O)NC2CCC2)cc1O[C@@H](C)c1ccccc1 (stereo in doubt) 6.66

* * *

# PROTOCOL DETAILS: Beagle dog PK study 1 of Example 101 (propylene glycol-based formulation, IV and PO), with clinical observations
# Format: in vivo
# CONDITION INFO: beagle, dog, plasma, iv, 1 mg/kg, dog PK study 1, intravenous, Test Animal 3
MEASURED ENDPOINT: AUC(0-inf) (ng·h/mL)
Numbers only, in ng·h/mL.

Need AUC(0-inf), item CNC(=O)c1[nH]c(C(=O)NC2CCC2)cc1O[C@@H](C)c1ccccc1 (stereo in doubt) 1870

* * *

# PROTOCOL DETAILS: Pharmacokinetics and plasma concentration of Example 101 in Lewis rats after oral administration (CIA study)
# Type: in vivo, Lewis rat
# CONDITION INFO: Lewis, rat, plasma, oral, 10 mg/kg, Day 21, Group 6 (CIA), 10 mg/kg; read-out: Mean Plasma Concentration
MEASURED ENDPOINT: concentration at 21 day (ng/mL)
Answers are plain numbers, in ng/mL.

What does the data say about its concentration at 21 day? Entry: CNC(=O)c1[nH]c(C(=O)NC2CCC2)cc1O[C@@H](C)c1ccccc1 (stereo in doubt) 208

* * *

# STUDY TARGET: BRD4 BD2 (Homo sapiens (Human))
# PROTOCOL DETAILS: NanoBRET bromodomain assay, NanoLuc-BRD4-BD2 fusion in HEK293 cells;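 note: tracer displacement BRET read in transfected cells after 2 h compound exposure at 37 °C, signal in milliBRET units corrected against no-tracer background wells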
# CONDITION INFO: IC50 for BRD4 BD1 divided by IC50 for BRD4 BD2; qualitative if an IC50 is at the upper limit
MEASURED ENDPOINT: Fold selectivity

Look over these answered cases.
Reported Fold selectivity, compound CCNC(=O)c1cc(OC(C)c2ccccc2C)c(C(=O)NC)[nH]1 (racemic) [Example 5] : ____ XX (Fold >50 and ≤200)

Next compound: CCNC(=O)c1cc(OC(CO)c2ccccc2)c(C(=O)NC)[nH]1 (racemic) [Example 73] X (Fold >2 and ≤50)

Proceed to CNC(=O)c1[nH]c(C(=O)NC2CCC2)cc1OC(C)c1ccccc1F (single isomer, unassigned) [Example 43] XX (Fold >50 and ≤200)

Another compound: CNC(=O)c1[nH]c(C(=O)NC(C)C)cc1O[C@@H](C)c1ccccc1 [Example 105] X (Fold >2 and ≤50)

One more compound: CNC(=O)c1[nH]c(C(=O)NC2CCC(F)(F)CC2)cc1OC(C)c1ccccc1 (single isomer, unassigned) [Example 103] XX (Fold >50 and ≤200)

Required: Fold selectivity, one value per compound below.
1. CNC(=O)c1[nH]c(C(=O)NC2CC2)cc1O[C@@H](C)c1ccccc1F [Example 59]
2. CCNC(=O)c1cc(OC(C)c2cccc(OC)c2)c(C(=O)NC)[nH]1 (racemic) [Example 7]

["XX (Fold >50 and ≤200)", "X (Fold >2 and ≤50)"]

* * *

# PROTOCOL DETAILS: Plasma stability assay, rat plasma
# Format: in vitro ADME
# CONDITION INFO: Method 2 (10 μM)
MEASURED ENDPOINT: Plasma Stability (% remaining at 120 minutes), Rat (%)
Answers are plain numbers, in %.

What value of Plasma Stability (% remaining at 120 minutes), Rat has been recorded for this entry: CCNC(=O)c1cc(OC(C)c2ccc(I)cc2)c(C(=O)NC)[nH]1 (single isomer, unassigned) 93

For the 5 molecules below, give their Plasma Stability (% remaining at 120 minutes), Rat values.
1. CNC(=O)c1[nH]c(C(=O)NC2COC2)cc1OC(C)c1ccccc1F (single isomer, unassigned)
2. CNC(=O)c1[nH]c(C(=O)NC2CCC(O)CC2)cc1OC(C)c1ccc(Cl)cc1 (single isomer, unassigned)
3. CNC(=O)c1[nH]c(C(=O)NC2CCC2)cc1OC(C)c1ccc(Cl)cn1 (single isomer, unassigned)
4. CNC(=O)c1[nH]c(C(=O)NC2CC2)cc1O[C@@H](C)c1ccccc1F
5. CCNC(=O)c1cc(OC(C)c2c(F)cccc2F)c(C(=O)NC)[nH]1 (single isomer, unassigned)

1: 76; 2: 89; 3: 85; 4: 50; 5: 88

* * *

# PROTOCOL DETAILS: Pharmacokinetics and plasma concentration of Example 101 in Lewis rats after oral administration (CIA study)
# Format: in vivo, Lewis rat
# CONDITION INFO: Lewis, rat, plasma, oral, 30 mg/kg, Day 21, Group 7 (CIA), 30 mg/kg; read-out: Mean Plasma Concentration
MEASURED ENDPOINT: concentration at 21 day (ng/mL)
Answers are plain numbers, in ng/mL.

What value of measured concentration at 21 day is listed for CNC(=O)c1[nH]c(C(=O)NC2CCC2)cc1O[C@@H](C)c1ccccc1 (stereo in doubt) ? 1580

* * *

# PROTOCOL DETAILS: Pharmacokinetics and plasma concentration of Example 101 in Lewis rats after oral administration (CIA study)
# Type: in vivo, Lewis rat
# CONDITION INFO: Lewis, rat, plasma, oral, 10 mg/kg, oral, day 0, 10 mg/kg, 10 h, per test subject; read-out: Plasma concentration
MEASURED ENDPOINT: concentration at 10 h
Number plus unit, in that order.

What value of concentration at 10 h has been reported for the following compound? CNC(=O)c1[nH]c(C(=O)NC2CCC2)cc1O[C@@H](C)c1ccccc1 (stereo in doubt) [Example 101] 1880 ng/mL

* * *

# PROTOCOL DETAILS: Beagle dog PK study 1 of Example 101 (propylene glycol-based formulation, IV and PO), with clinical observations
# Format: in vivo
# CONDITION INFO: beagle, dog, plasma, iv, 1 mg/kg, dog PK study 1, IV, 0.25 h, Test Animal 1; read-out: Plasma concentration
MEASURED ENDPOINT: concentration at 0.25 h (ng/mL)
Answers are plain numbers, in ng/mL.

Any idea what concentration at 0.25 h was measured for CNC(=O)c1[nH]c(C(=O)NC2CCC2)cc1O[C@@H](C)c1ccccc1 (stereo in doubt) [Example 101] ? 1120

* * *

# PROTOCOL DETAILS: Beagle dog PK study 2 of Example 101 (HPβCD based formulation, IV), with clinical observations
# Format: in vivo
# CONDITION INFO: beagle, dog, plasma, iv, 1 mg/kg, dog PK study 2, IV 1 mg/kg, HPβCD, mean; read-out: MRTInf—obs
MEASURED ENDPOINT: MRT inf
Number first, unit second: that is the form wanted.

Tell me the measured MRT inf of CNC(=O)c1[nH]c(C(=O)NC2CCC2)cc1O[C@@H](C)c1ccccc1 (stereo in doubt) , please. 51 min

* * *

# PROTOCOL DETAILS: Beagle dog PK study 1 of Example 101 (propylene glycol-based formulation, IV and PO), with clinical observations
# Assay type: in vivo
# CONDITION INFO: beagle, dog, plasma, iv, 1 mg/kg, dog PK study 1, intravenous, Test Animal 2
MEASURED ENDPOINT: C0 (ng/mL)
One number for each entry, in ng/mL.

What does the data say about its C0? Entry: CNC(=O)c1[nH]c(C(=O)NC2CCC2)cc1O[C@@H](C)c1ccccc1 (stereo in doubt) 1550

* * *

# PROTOCOL DETAILS: Beagle dog PK study 1 of Example 101 (propylene glycol-based formulation, IV and PO), with clinical observations
# Type: in vivo
# CONDITION INFO: beagle, dog, plasma, iv, 1 mg/kg, dog PK study 1, IV, 24 h, mean; read-out: Average plasma concentration, Mean
MEASURED ENDPOINT: concentration at 24 h (ng/mL)
Give bare numbers, in ng/mL.

Request the reported concentration at 24 h associated with CNC(=O)c1[nH]c(C(=O)NC2CCC2)cc1O[C@@H](C)c1ccccc1 (stereo in doubt) [Example 101] 0
